Values from the RNAGym collection of RNA variant scans (doi:10.7554/elife.90254)

B1: LINE1-full (parent)
chain: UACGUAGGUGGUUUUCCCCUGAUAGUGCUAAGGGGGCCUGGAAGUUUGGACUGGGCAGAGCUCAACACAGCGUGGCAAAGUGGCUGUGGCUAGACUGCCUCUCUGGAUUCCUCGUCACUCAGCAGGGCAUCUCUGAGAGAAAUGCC

Variants of: B1
test: self-cleavage, relative activity (ratio to wild type); higher = more cleavage; in vitro, sequencing; the parent is a self-cleaving ribozyme
Decision: self-cleavage compared against 1; not below it gives True, below it gives False.

# mutation.spec, class.label
measured = [
    ("A24G U109C", "False"),
]

Check this variant for self-cleavage at or above 1: G75A A141G
True

Form field: self-cleavage at least 1? Entry: A78G G97A
False

hey, is self-cleavage for this one >= 1? A42G A92G
False
